Values from PubChem BioAssay (NCI)

- System: SF-295 CNS
- protocol.text: NCI-60 one-dose screen, 48 h (100 = growth as untreated, 0 = no growth, -100 = all killed)
- condition.summary: 10 µM
This is part of a sample that, as a whole, favours compounds with a hit. Of some 83,000 tested, about 20% had one in any assay.
Decision: growth >= 90% yields Condition met, all other cases yield Condition not met.

Could you please find out whether `O=[N+]([O-])c1ccc2c(c1)Cc1cc(I)ccc1-2` has growth that meets 90% or exceeds it?
Condition not met

Could you please find out whether COc1cccc2c1C(=O)c1c(O)c3c(c(O)c1C2=O)C[C@@](O)(C(=O)COC(=O)c1cccnc1)C[C@@H]3OC1CC(N)C(O)C(C)O1 (stereo not given in full) has growth that meets 90% or exceeds it?
Condition not met

Could you please find out whether NC1CCC(Nc2nc(NCc3ccc(-c4ccccc4O)nc3)c3ncn(C4CCCC4)c3n2)CC1 (stereo not given) has growth that meets 90% or exceeds it?
Condition not met

Could you please find out whether `COc1ccc(-c2cc(/C=C/C(=O)c3ccc(N)cc3)[nH]n2)cc1OC` has growth that meets 90% or exceeds it?
Condition not met

Could you please find out whether CC(CNC(Cc1ccccc1)c1ccccc1)NC(Cc1ccccc1)c1ccccc1 (stereo not given) has growth that meets 90% or exceeds it?
Condition not met

Could you please find out whether `O=CNc1c(Cl)cc2c(c1Cl)Cc1cc([N+](=O)[O-])ccc1-2` has growth that meets 90% or exceeds it?
Condition not met

Could you please find out whether `O=C(O)CCCN1C(=O)NC2(C1=O)c1ccccc1-c1ccccc12` has growth that meets 90% or exceeds it?
Condition met

Could you please find out whether NC(=O)C12C(=O)NC(=O)C1(C(=O)O)C21CCCC1 (stereo not given) has growth that meets 90% or exceeds it?
Condition met

Could you please find out whether CCCOCC(O)CNCCN (stereo not given) has growth that meets 90% or exceeds it?
Condition met

----------
Would you mind telling me the reported growth of each entry?
- System: HOP-62 NSCLC
- protocol.text: NCI-60 one-dose screen, 48 h (100 = growth as untreated, 0 = no growth, -100 = all killed)
- condition.summary: 10 µM
This is part of a sample that, as a whole, favours compounds with a hit. Of some 83,000 tested, about 20% had one in any assay.
Supply the numeric figure in %, leaving out any unit text.

Hello, I am looking for reported growth with HOP-62 NSCLC for `C/C(=N/NC(=O)c1sc(=S)n(C)c1N)c1cc2cc(Cl)ccc2o1` . Could you help?
96.5

Hello, I am looking for reported growth with HOP-62 NSCLC for `COc1ccc(-c2nnc(SC/C(=N\O)c3ccccc3)o2)cc1` . Could you help?
97.7

Hello, I am looking for reported growth with HOP-62 NSCLC for `CC(C)/C(=N/O)c1ccccc1` . Could you help?
116

Hello, I am looking for reported growth with HOP-62 NSCLC for `COc1ccc(-c2csc(NC(=O)CO[N+](=O)[O-])n2)cc1` . Could you help?
101

Hello, I am looking for reported growth with HOP-62 NSCLC for `O=C(Nc1cccc(-c2nc3ccccc3[nH]2)c1)c1cccc(NC(=O)c2ccco2)c1` . Could you help?
73.2

Hello, I am looking for reported growth with HOP-62 NSCLC for `CC(=O)Nc1nc(C)c(C(=O)N/N=C/c2cccn2C)s1` . Could you help?
109

Hello, I am looking for reported growth with HOP-62 NSCLC for `COc1ccc(-c2nnc(COc3ccc(NC(=O)Nc4cccc(C(F)(F)F)c4)cc3F)o2)cc1` . Could you help?
67.4

Hello, I am looking for reported growth with HOP-62 NSCLC for `C[C@]12CC[C@H]3[C@@H](CC=C4C[C@@H](O)CC[C@@]43C)[C@@H]1CC[C@@H]2C(=O)C/C=N/O` . Could you help?
76.8

Hello, I am looking for reported growth with HOP-62 NSCLC for `CCOC(=S)Sc1ccc([N+](=O)[O-])cc1[N+](=O)[O-]` . Could you help?
94

Hello, I am looking for reported growth with HOP-62 NSCLC for `Cc1ncc([N+](=O)[O-])n1CCOc1ccc(C(=O)/C=C/c2ccc(C(F)(F)F)cc2)cc1` . Could you help?
88.9

Hello, I am looking for reported growth with HOP-62 NSCLC for `COc1ccc2nc(-c3ccccc3)cc(C(C)=O)c2c1` . Could you help?
78.3

Hello, I am looking for reported growth with HOP-62 NSCLC for `O=C(CCc1ccccc1)N1CCN(C(=O)CCc2ccccc2)CC1` . Could you help?
105

Hello, I am looking for reported growth with HOP-62 NSCLC for `Cn1cnc([N+](=O)[O-])c1/C=C1\Oc2ccc(Cl)cc2C1=O` . Could you help?
93.5

Hello, I am looking for reported growth with HOP-62 NSCLC for `CCOc1nc(-c2ccccc2)cc2c(O)c(C(=O)NC(C)C)[nH]c(=O)c12` . Could you help?
99.7

Hello, I am looking for reported growth with HOP-62 NSCLC for `Cc1ccccc1C1=N[C@@H](Cc2ccccc2)C(=O)c2c(nc3ccccn23)N1` . Could you help?
93.4

Hello, I am looking for reported growth with HOP-62 NSCLC for `COc1cc(C(=O)n2nc(N)c3c(C)cc(C)nc32)cc(OC)c1OC` . Could you help?
79.3

Hello, I am looking for reported growth with HOP-62 NSCLC for CCN1CCOC1C(C)C (configuration not stated) . Could you help?
99.5

Hello, I am looking for reported growth with HOP-62 NSCLC for `CNC(=S)Sc1ccc([N+](=O)[O-])cc1[N+](=O)[O-]` . Could you help?
83

Hello, I am looking for reported growth with HOP-62 NSCLC for `O=S(=O)(NC1c2ccccc2Oc2ccccc21)c1cc(Cl)ccc1Cl` . Could you help?
89.4

Hello, I am looking for reported growth with HOP-62 NSCLC for `C[N+]1=C(/C=C/c2ccc(I)cc2)C(C)(C)c2ccccc21` . Could you help?
108

Hello, I am looking for reported growth with HOP-62 NSCLC for CC(=O)Nc1ccc2c(c1)C(N1CC3CCC(CC3)C1)c1ccccc1-2 (configuration not stated) . Could you help?
96.5

Hello, I am looking for reported growth with HOP-62 NSCLC for `CN1CCN(c2nc(-c3cccnc3)nc3sc4c(c23)CCCCCC4)CC1` . Could you help?
85.5
